Test system: cancer organoid WCB024T
Method Notes: Regorafenib dose-response in 384-well LVM suspension culture, CellTitre-Glo 3D viability assay
Assay type: cell-based
Applied Conditions: Homo sapiens, 168 h, Mid (Left) plate half, 7 days drug, 3% Matrigel, read-out: Mean ED50
Measurement Label: pEC50
Interpret pEC50 as the negative base-10 log of the concentration measured in mol/L.

Q) State pEC50 (cancer organoid WCB024T) of CNC(=O)c1cc(Oc2ccc(NC(=O)Nc3ccc(Cl)c(C(F)(F)F)c3)c(F)c2)ccn1 .
A) 5.43

Hello, the source for this data is patent US20230029554A1, in case you need it.
